Where do these numbers come from? They come from patent EP0237866A1.

// reported Krankheits-befall in % der unbe-handelten Kontrolle per item
system: Erysiphe graminis f.sp.hordei; assay: Erysiphe test (barley) / protective; assay type: in vivo; details: protective spray, 0,0025 Gew.-% in the spray liquor, evaluated 7 days after inoculation

Answered cases to consult:
{"Compound": "CCCCOP(=O)(OC)Oc1ncc(Cl)cc1Cl (stereo not shown)", "Measured": "12,5 % der unbe-handelten Kontrolle"}
{"Compound": "CCCCOP(=O)(OC)Oc1cccc(Cl)n1 (stereo not shown)", "Measured": "37,5 % der unbe-handelten Kontrolle"}
{"Compound": "CCCCCCOP(=O)(OC)Oc1cccc(Cl)n1 (stereo not shown)", "Measured": "37,5 % der unbe-handelten Kontrolle"}

Now for another entry.
Exercise: // query Krankheits-befall in % der unbe-handelten Kontrolle value for entry CCCCCCOP(=O)(OC)Oc1ncc(Cl)cc1Cl (stereo not shown)
Key: 25,0 % der unbe-handelten Kontrolle
